# MEASUREMENT TARGET: T1, human IL-2Rα (human, UniProt P01589 22-240, limits assumed)
# T1 construct: recombinant protein; also called hu IL-2R; human IL-2Ra
# T1 sequence: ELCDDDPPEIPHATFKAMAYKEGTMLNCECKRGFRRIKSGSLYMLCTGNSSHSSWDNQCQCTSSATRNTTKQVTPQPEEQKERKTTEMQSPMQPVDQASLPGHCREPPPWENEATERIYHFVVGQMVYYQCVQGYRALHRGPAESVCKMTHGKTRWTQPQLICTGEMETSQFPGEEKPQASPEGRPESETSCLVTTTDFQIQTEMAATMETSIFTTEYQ
# METHOD SUMMARY: ELISA, P.E. on coated antigen
OD (PE binding ELISA): recorded values
Unit OD450 nm implied. Number only.

FJ1427_P035MP01A01 (VHH, periplasmic extract; also called clone nr) VHH: EVQLVESGGGLVQAGDSLRLSCAASGRSFRNYILAWYRQAPGKEREFLAAISWLDGTLYADSVEDRFTISRDNPKNTVHLQMDNLKPEDTAVYYCAADRGPVRPVLAPDVDYWGQGTQVSVSS :: 2.85

I would be grateful if you could share the reported OD (PE binding ELISA) for 9-MP05G01 (VHH, periplasmic extract; also called FJ1427_P035MP05G01) VHH: EVQLVESGGGLVQAGGSLRLSCAASGGSIYTYNMGWFRQAPGKEREFVAGTLWSGGDSVYADFAKGRFTLSRENAKNTLYLQMNSLKPEDTATYYCAIDPLSLTSDWRVDELSSWGKGTLVTVSS . 2.35

Now the same for FJ1427_P035MP05E10 (VHH, periplasmic extract; also called clone nr) VHH: EVQLVESGGGLVQAGGSLRLSCTASGLTFDGYAIGWFRQAPGKEREGVSYITGSDGSTYYIDSVKGRFTISSDIAKSTVYLQMNSLKPEDTAVYYCAVDRLGSRGLYASSWWRSGDMDLWGKGTLVTVSS 2.27

Now the same for 11-MP05H04 (VHH, periplasmic extract; also called FJ1427_P035MP05H04) VHH: QLQLVESGGGLVQAGGSLRLSCAASGLTFEGYAIGWFRQAPGKEREGVSYITGSDGTTYYINSVKGRFTISSDNAKSTVYLQMNTLKPEDTAVYYCAVDRLGSQGRYASAWWRSGDMDLWGKGTQVTVSS 2.22
